# Target Or System: T1, human IL-4Rα (human, UniProt P24394 26-232)
# T1 construct: also called Hu IL-4Rα; hIL-4Rα
# T1 sequence: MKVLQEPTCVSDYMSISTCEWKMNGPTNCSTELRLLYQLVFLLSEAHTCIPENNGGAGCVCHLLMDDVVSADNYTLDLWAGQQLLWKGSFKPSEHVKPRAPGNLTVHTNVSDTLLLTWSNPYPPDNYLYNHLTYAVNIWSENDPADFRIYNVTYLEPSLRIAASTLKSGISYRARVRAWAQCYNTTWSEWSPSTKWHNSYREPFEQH
# Test Details: KinExA
Measured Endpoint: KD Relative to Dupilumab

These solved cases illustrate the format of a correct answer.
{"Binder": "Construct 15 (mAb423) (antibody, IgG4, V domains shown, VH/VL only) VH: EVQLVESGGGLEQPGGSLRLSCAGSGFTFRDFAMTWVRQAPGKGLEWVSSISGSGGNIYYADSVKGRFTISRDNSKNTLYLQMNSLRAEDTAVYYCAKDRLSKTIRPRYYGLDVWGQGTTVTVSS VL: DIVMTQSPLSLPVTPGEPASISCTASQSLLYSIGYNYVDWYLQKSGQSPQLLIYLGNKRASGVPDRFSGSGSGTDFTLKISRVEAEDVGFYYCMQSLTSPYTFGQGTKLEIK", "KD Relative to Dupilumab": 0.01}
{"Binder": "Construct 24 (mAb432) (antibody, IgG4, V domains shown, VH/VL only) VH: EVQLVESGGGLEQPGGSLRLSCAGSGFTFRDFAMTWVRQAPGKGLEWVSSISGSGGNIYYADSVKGRFTISRDNSKNTLYLQMNSLRAEDTAVYYCAKDRLSIAVRPRYYGLDVWGQGTTVTVSS VL: DIVMTQSPLSLPVTPGEPASISCTASQSLLYSIGKNYVDWYLQKSGQSPQLLIYLGNNRATGVPDRFSGSGSGTDFTLKISRVEAEDVGFYYCMQSLTSPYTFGQGTKLEIK", "KD Relative to Dupilumab": 0.105}
{"Binder": "Construct 38 (mAb471) (antibody, IgG4, V domains shown, VH/VL only) VH: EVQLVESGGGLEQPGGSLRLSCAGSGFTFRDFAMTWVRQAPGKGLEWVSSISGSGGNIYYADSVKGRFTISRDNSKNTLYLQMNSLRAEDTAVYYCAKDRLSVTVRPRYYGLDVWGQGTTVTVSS VL: DIVMTQSPLSLPVTPGEPASISCRSSQSLLYSIGKNYVDWYLQKSGQSPQLLIYEGNKRASGVPDRFSGSGSGTDFTLKISRVEAEDVGFYYCMQSLTSPYTFGQGTKLEIK", "KD Relative to Dupilumab": 0.376}

Turning now to a further binder:
// returns reported KD Relative to Dupilumab for input Construct 13 (mAb422) (antibody, IgG4, V domains shown, VH/VL only) VH: EVQLVESGGGLEQPGGSLRLSCAGSGFTFRDFAMTWVRQAPGKGLEWVSSVSGSGGNTYYADSVKGRFTISRDNSKNTLYLQMNSLRAEDTAVYYCAKDRLSVTVRPRYYGLDVWGQGTTVTVSS VL: DIVMTQSPLSLPVTPGEPASISCRSSQSVLYSIGYNYVDWYLQKSGQSPQLLIYLGNKRASGVPDRFSGSGSGTDFTLKISRVEAEDVGFYYCMQSLTSPYTFGQGTKLEIK
0.267

Values were extracted from patent US20260193366A1.
